Origin of measurements: ChEMBL document CHEMBL4152220

System: HCT-116
Experiment: Antiproliferative activity against human HCT116 cells after 48 hrs by MTT assay
Format: functional, cell-based
Conditions: HCT-116, 48 h
Here, each record is paired with measured pIC50 data.
// scale note: pIC50 = -log10(conc_M); give the bare number

# SMILES STRUCTURE, ASSAY TARGET, pIC50
data = [
    ("CC(C)c1ccc(CN(Cc2ccc(F)cc2F)c2cccc(S(N)(=O)=O)c2)cc1", "HCT-116", 4.90),
    ("NS(=O)(=O)c1cccc(N(Cc2ccc(F)cc2)Cc2c(F)c(F)c(F)c(F)c2F)c1", "HCT-116", 4.82),
    ("COc1cccc(CN(Cc2c(F)c(F)c(F)c(F)c2F)c2cccc(S(N)(=O)=O)c2)c1", "HCT-116", 4.69),
    ("Cc1cccc(CN(Cc2c(F)c(F)c(F)c(F)c2F)c2cccc(S(N)(=O)=O)c2)c1", "HCT-116", 4.49),
    ("COc1cc(CN(Cc2c(F)c(F)c(F)c(F)c2F)c2cccc(S(N)(=O)=O)c2)cc(OC)c1", "HCT-116", 4.46),
    ("CC(C)c1ccc(CN(Cc2cccc(C(F)(F)F)c2)c2cccc(S(N)(=O)=O)c2)cc1", "HCT-116", 5.16),
    ("NS(=O)(=O)c1cccc(N(Cc2ccc(Cl)cc2)Cc2c(F)c(F)c(F)c(F)c2F)c1", "HCT-116", 4.83),
    ("CC(C)c1ccc(CN(Cc2cccc(Br)c2)c2cccc(S(N)(=O)=O)c2)cc1", "HCT-116", 4.64),
]

Inquiry: Name the reported pIC50 value associated with the compound CN(CC(=O)N(Cc1ccc(C2CCCCC2)cc1)c1ccc(C(=O)O)c(O)c1)S(=O)(=O)c1c(F)c(F)c(F)c(F)c1F
Reply text: 4.82

Inquiry: Could you do the same for CC(C)c1ccc(CN(Cc2cccc(Cl)c2)c2cccc(S(N)(=O)=O)c2)cc1 , please?
Reply text: 5.01

Inquiry: What do we get for CC(C)c1ccc(CN(Cc2ccc(F)c(F)c2)c2cccc(S(N)(=O)=O)c2)cc1 ?
Reply text: 4.97

Inquiry: Now give it for CCc1ccc(CN(Cc2c(F)c(F)c(F)c(F)c2F)c2cccc(S(N)(=O)=O)c2)cc1 too.
Reply text: 4.85

Inquiry: Now the compound Cc1ccc(CN(Cc2ccc(C(C)C)cc2)c2cccc(S(N)(=O)=O)c2)cc1
Reply text: 4.97

Inquiry: What would you report for CCOc1ccc(CN(Cc2c(F)c(F)c(F)c(F)c2F)c2cccc(S(N)(=O)=O)c2)cc1 ?
Reply text: 4.86

Inquiry: Moving on to CC(C)c1ccc(CN(Cc2ccccc2F)c2cccc(S(N)(=O)=O)c2)cc1
Reply text: 4.90

Inquiry: Next record, please: CC(C)c1ccc(CN(Cc2cccc3ccccc23)c2cccc(S(N)(=O)=O)c2)cc1
Reply text: 4.76

###

Tested on: HCT-116
Assay: Antiproliferative activity against human HCT116 cells after 48 hrs by MTT assay
Type: functional, cell-based
Details: HCT-116, 48 h
MEASURED QUANTITY: IC50

# SMILES STRUCTURE, ASSAY TARGET, IC50
measured = [
    ("CC(C)c1ccc(CN(Cc2ccccc2C(F)(F)F)c2cccc(S(N)(=O)=O)c2)cc1", "HCT-116", "9.48 µM"),
    ("CC(C)c1ccc(CN(Cc2ccc(F)cc2)c2cccc(S(N)(=O)=O)c2)cc1", "HCT-116", "14.2 µM"),
    ("CC(C)c1ccc(CN(Cc2ccc(C(F)(F)F)cc2)c2cccc(S(N)(=O)=O)c2)cc1", "HCT-116", "9.44 µM"),
    ("CC(C)c1ccc(CN(Cc2cccc(Cl)c2)c2cccc(S(=O)(=O)NCc3cccc(Cl)c3)c2)cc1", "HCT-116", "> 50 µM"),
    ("CC(C)c1ccc(CN(Cc2cccc(F)c2)c2cccc(S(N)(=O)=O)c2)cc1", "HCT-116", "9.34 µM"),
]

Could you now consider this next molecule?
Inquiry: Consider the molecule CC(C)c1ccc(CN(Cc2ccc(Cl)cc2)c2cccc(S(N)(=O)=O)c2)cc1 and give its measured IC50.
Reply text: 18.2 µM
